Source of measurements: patent US7790896B2

- Tested on: RNA (Type VI from torula yeast)
- Assay Overview: In vitro solution assay (primary screening): fluorescent emission fold change upon binding to RNA
- Details: dye 10 μM, RNA 500 μg/mL in TE buffer
Property: Ex(nm); scope: individual compounds
Quantity: Ex(nm)

> print(dat)
                               entry.smiles  quantity  meas.value
1  Cc1cc(C=Cc2cc[n+](C)cc2)c(C)n1-c1cccc(C(F)(F)F)c1    Ex(nm)         450
2  COc1cc(OC)c(/C=C/c2ccc3ccccc3[n+]2C)c(OC)c1    Ex(nm)         450
3      COc1cc(OC)c(OC)cc1C=Cc1cccc(C)[n+]1C    Ex(nm)         450
4     CCN(CC)c1ccc(/C=C/c2cccc(C)[n+]2C)cc1    Ex(nm)         500
5          CN(C)c1ccc(C=Cc2cc[n+](C)cc2)cc1    Ex(nm)         500
